# System: PPARg:RXRa DBDmut IVT, anti-RXR (DBD mutation: RXRa K156A/R161A, NR concentration 270 nM, RXRa partner concentration 90 nM)
# METHOD NOTES: PBM binding z-score (relative to random genomic background probes); higher = stronger binding; sequences stand for … in GC…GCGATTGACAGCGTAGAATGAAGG
MEASUREMENT TYPE: PBM binding z-score
Give only the figure.

Known PBM binding z-score results, listed for orientation:
GGAACGAGGGCATTCGAGTTGATACCATGGCGAT	3.16
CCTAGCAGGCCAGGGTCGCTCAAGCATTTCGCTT	-0.39
CAAACTAGGTCAAGGTCCAAGTCGGTTTGTGCCA	8.66
GCGACTTGGGCAAAGCAGGTTACCATAAGGTTGG	-0.00446
CCTTACGGGTCACGAGGTTATATCACGACGAGCG	4.44
GCGACTGGGGCAGAGCAGGTTACCATAAGGTTGG	3.52
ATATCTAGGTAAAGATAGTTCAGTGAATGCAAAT	5.82
ATATGTAGGGTAGCTGGGGTCATTCAGACTAGGC	5.27

Task: Any idea what its PBM binding z-score is? The sequence is `GGAACGAGGGCAAAGTTAATAGCATCTGTCGACG`
Output: 4

Task: Any idea what its PBM binding z-score is? The sequence is `GCTGCAAGGTCAGGTTGGTCAGCTAACGGGTACG`
Output: 1.24

Task: Any idea what its PBM binding z-score is? The sequence is `TCTGGTAGGTCAACGATGGTCAGCTAATCTGCTA`
Output: 5.2

Task: Any idea what its PBM binding z-score is? The sequence is `CCGAGTATGTTATGGGGCATTCAGGCAACGGTGA`
Output: 0.63

Task: Any idea what its PBM binding z-score is? The sequence is `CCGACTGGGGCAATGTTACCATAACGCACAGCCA`
Output: 3.67

Task: Any idea what its PBM binding z-score is? The sequence is `ATACCAAGGTGATCGTGAGGTCTTTGATACTAAC`
Output: 0.237

Task: Any idea what its PBM binding z-score is? The sequence is `TTACCAAGGTGGAAGGTCGTTGATGCACGCCTTG`
Output: -0.302

Task: Any idea what its PBM binding z-score is? The sequence is `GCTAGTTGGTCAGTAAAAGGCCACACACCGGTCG`
Output: -0.0753

Task: Any idea what its PBM binding z-score is? The sequence is `CTTTACGGGTCACGAGGTTATAGCACGACGAGCG`
Output: 5.55

Task: Any idea what its PBM binding z-score is? The sequence is `GCTGCCAGGTCAGGTTGGTCAGCTAACGGGTACG`
Output: 0.771

Task: Any idea what its PBM binding z-score is? The sequence is `TGAATGAGGTTATAAGATCCGGGAACGTTGCAAA`
Output: 1.11
